Tested on: 616215-338-R-J1-PDC tumor spheroids, viability;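 further: spheroids exposed to agents for 7 days before readout; percent viability relative to DMSO vehicle control wells taken as 100%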
Test: Anticancer human tumor 616215-338-R-J1-PDC patient-derived colon adenocarcinoma cell line growth inhibition [GQUAD]
Conditions: second compound 3.16 µM; first compound 1 µM; stronger effect = lower value; spheroids with HUVEC and MSC
READOUT_NAME: viability, T/C (%)
Give a bare numeral; the unit % is implied.

Request: Entry under review: C=CC(=O)N1CCN(c2nc(=O)n(-c3c(C)ccnc3C(C)C)c3nc(-c4c(O)cccc4F)c(F)cc23)C(C)C1 (centres undefined) + Cc1[nH]c2ccc(F)cc2c1-c1nc2c3cccnc3c3ncccc3c2[nH]1 . Reported viability, T/C?
Response: 88.3

Request: Entry under review: COc1cccc2c1C(=O)c1c(O)c3c(c(O)c1C2=O)CC(O)(C(=O)CO)CC3OC1CC(N)C(O)C(C)O1 (centres undefined) + CN(C)c1ccc(Nc2c3ccc(NC(=O)CCN4CCCC4)cc3nc3cc(NC(=O)CCN4CCCC4)ccc23)cc1 . Reported viability, T/C?
Response: 45.4

Request: Entry under review: CC1COCCN1c1cc(C2(O)CC3CCC(C2)O3)c2cnn(-c3ccn[nH]3)c2n1 (centres undefined) + CN(C)c1ccc(Nc2c3ccc(NC(=O)CCN4CCCC4)cc3nc3cc(NC(=O)CCN4CCCC4)ccc23)cc1 . Reported viability, T/C?
Response: 28.4

Request: Entry under review: CC(=O)O[C@H]1C(=O)[C@@]2(C)[C@H]([C@H](OC(=O)c3ccccc3)[C@]3(O)C[C@H](OC(=O)[C@H](O)[C@@H](NC(=O)c4ccccc4)c4ccccc4)C(C)=C1C3(C)C)[C@]1(OC(C)=O)CO[C@@H]1C[C@@H]2O + CN(C)c1ccc(Nc2c3ccc(NC(=O)CCN4CCCC4)cc3nc3cc(NC(=O)CCN4CCCC4)ccc23)cc1 . Reported viability, T/C?
Response: 11.1

Request: Entry under review: C#Cc1c(F)ccc2cc(O)cc(-c3ncc4c(N5CC6CCC(C5)N6)nc(OCC56CCCN5CC(F)C6)nc4c3F)c12 (centres undefined) + Cc1[nH]c2ccc(F)cc2c1-c1nc2c3cccnc3c3ncccc3c2[nH]1 . Reported viability, T/C?
Response: 94.1

Request: Entry under review: C=CC(=O)N1CCN(c2nc(=O)n(-c3c(C)ccnc3C(C)C)c3nc(-c4c(O)cccc4F)c(F)cc23)C(C)C1 (centres undefined) + CN(C)c1ccc(Nc2c3ccc(NC(=O)CCN4CCCC4)cc3nc3cc(NC(=O)CCN4CCCC4)ccc23)cc1 . Reported viability, T/C?
Response: 95

Request: Entry under review: C=CCn1c(=O)c2cnc(Nc3ccc(N4CCN(C)CC4)cc3)nc2n1-c1cccc(C(C)(C)O)n1 + Cc1[nH]c2ccc(F)cc2c1-c1nc2c3cccnc3c3ncccc3c2[nH]1 . Reported viability, T/C?
Response: 15.8

Request: Entry under review: COc1cc(C2c3cc4c(cc3C(OC3OC5COC(C)OC5C(O)C3O)C3COC(=O)C23)OCO4)cc(OC)c1O (centres undefined) + CN(C)c1ccc(Nc2c3ccc(NC(=O)CCN4CCCC4)cc3nc3cc(NC(=O)CCN4CCCC4)ccc23)cc1 . Reported viability, T/C?
Response: 43.6

Request: Entry under review: O=C(c1cc(Cc2n[nH]c(=O)c3ccccc23)ccc1F)N1CCN(C(=O)C2CC2)CC1 + Cc1[nH]c2ccc(F)cc2c1-c1nc2c3cccnc3c3ncccc3c2[nH]1 . Reported viability, T/C?
Response: 96.8
